Test system: Cryptococcus neoformans clinical isolate CN1
assay_summary: MIC, broth microdilution (CLSI M27-A3), CN1
Format: cell-based
assay_context: MIC-0, CN1, 35 °C 48 h
measured_attribute: MIC (µg/mL)

Answered examples (4):
compound: CCCCCCCCCCCCOCC1OC(OC2C(N)CC(N)C(OC3OC(CN)C(O)CC3N)C2O)C(O)C(N)C1O (centres unmarked)
MIC, µg/mL: 1.95
--
compound: CCCCCCCCCCCC(=O)NC[C@H]1O[C@H](O[C@@H]2[C@@H](O)[C@H](O[C@H]3O[C@H](CN)[C@@H](O)C[C@H]3N)[C@@H](N)C[C@H]2N)[C@H](O)[C@@H](N)[C@@H]1O
MIC, µg/mL: 0.975
--
compound: CCCCCCCCCCCCSC[C@H]1O[C@H](O[C@@H]2[C@@H](O)[C@H](O[C@H]3O[C@H](CN)[C@@H](O)C[C@H]3N)[C@@H](N)C[C@H]2N)[C@H](O)[C@@H](N)[C@@H]1O
MIC, µg/mL: 0.975
--
compound: CC[C@H](C)C[C@H](C)CCCCCCCCC(=O)N[C@H]1C[C@@H](O)[C@@H](NCCN)NC(=O)[C@@H]2[C@@H](O)CCN2C(=O)[C@H]([C@H](O)CCN)NC(=O)[C@H]([C@H](O)[C@@H](O)c2ccc(O)cc2)NC(=O)[C@@H]2C[C@@H](O)CN2C(=O)[C@H]([C@@H](C)O)NC1=O [CAS, caspofungin, reference compound]
MIC, µg/mL: 15.6

A. CCCCCCCCCCCCS(=O)(=O)C[C@H]1O[C@H](O[C@@H]2[C@@H](O)[C@H](O[C@H]3O[C@H](CN)[C@@H](O)C[C@H]3N)[C@@H](N)C[C@H]2N)[C@H](O)[C@@H](N)[C@@H]1O
B. CCCCCCCCCCc1cn(C[C@H]2O[C@H](O[C@@H]3[C@@H](O)[C@H](O[C@H]4O[C@H](CN)[C@@H](O)C[C@H]4N)[C@@H](N)C[C@H]3N)[C@H](O)[C@@H](N)[C@@H]2O)nn1
C. CCCCCCCCCCCCc1cn(C[C@H]2O[C@H](O[C@@H]3[C@@H](O)[C@H](O[C@H]4O[C@H](CN)[C@@H](O)C[C@H]4N)[C@@H](N)C[C@H]3N)[C@H](O)[C@@H](N)[C@@H]2O)nn1
Kindly order the items shown according to MIC, from the highest value down. Provide the labels, sequenced as the question asks. A, B, C
(A: 1.95 µg/mL, B: 0.975 µg/mL, C: 0.48 µg/mL)

###

assay_summary: Hemolytic activity assay
Type: cell-based, murine
assay_context: mouse, murine red blood cells (mRBCs); 1.95 μg/mL, mRBCs, 37 °C 1 h, ± SDEV
Description: The hemolytic activity of compounds 3, 4, 7a, 7b, and 9 as well as the parent compound TOB was determined by using previously described methods with minor modifications. Murine whole blood (1 mL) was suspended in 4 mL of PBS and centrifuged at 1000 rpm for 10 min at room temperature to obtain murine red blood cells (mRBCs). […] The percentage of hemolysis was calculated using the following equation: % hemolysis = [(absorbance of sample) − (absorbance of blank)] × 100/(absorbance of positive control).
measured_attribute: hemolysis at 1 h, 1.95 μg/mL (%)
State the answer as a number, implicitly in %.

Below are worked cases with known answers.
molecule: CCCCCCCCCCCC(=O)NC[C@H]1O[C@H](O[C@@H]2[C@@H](O)[C@H](O[C@H]3O[C@H](CN)[C@@H](O)C[C@H]3N)[C@@H](N)C[C@H]2N)[C@H](O)[C@@H](N)[C@@H]1O
unit_annotation: %
experimental_result: 2.5
//
molecule: NC[C@H]1O[C@H](O[C@H]2[C@H](O)[C@@H](O[C@H]3O[C@H](CO)[C@@H](O)[C@H](N)[C@H]3O)[C@H](N)C[C@@H]2N)[C@H](N)C[C@@H]1O
unit_annotation: %
experimental_result: 15.9
//
molecule: CCCCCCCCCCCCSC[C@H]1O[C@H](O[C@@H]2[C@@H](O)[C@H](O[C@H]3O[C@H](CN)[C@@H](O)C[C@H]3N)[C@@H](N)C[C@H]2N)[C@H](O)[C@@H](N)[C@@H]1O
unit_annotation: %
experimental_result: 6

Quote hemolysis at 1 h, 1.95 μg/mL reported for C[C@@H]1[C@H](O)[C@@H](C)/C=C/C=C/C=C/C=C/C=C/C=C/C=C/[C@H](O[C@@H]2O[C@H](C)[C@@H](O)[C@H](N)[C@@H]2O)C[C@@H]2O[C@](O)(C[C@@H](O)C[C@@H](O)[C@H](O)CC[C@@H](O)C[C@@H](O)CC(=O)O[C@H]1C)C[C@H](O)[C@H]2C(=O)O [AmB, amphotericin B, reference compound] please. 1.7

Note hemolysis at 1 h, 1.95 μg/mL for the molecule shown: `CCCCCCCCCCCCc1cn(C[C@H]2O[C@H](O[C@@H]3[C@@H](O)[C@H](O[C@H]4O[C@H](CN)[C@@H](O)C[C@H]4N)[C@@H](N)C[C@H]3N)[C@H](O)[C@@H](N)[C@@H]2O)nn1` 14.8

Identify the reported hemolysis at 1 h, 1.95 μg/mL for the following entry. `CCCCCCCCCCCCS(=O)(=O)C[C@H]1O[C@H](O[C@@H]2[C@@H](O)[C@H](O[C@H]3O[C@H](CN)[C@@H](O)C[C@H]3N)[C@@H](N)C[C@H]2N)[C@H](O)[C@@H](N)[C@@H]1O` 6.6

For the molecule `CCCCCCCCCCc1cn(C[C@H]2O[C@H](O[C@@H]3[C@@H](O)[C@H](O[C@H]4O[C@H](CN)[C@@H](O)C[C@H]4N)[C@@H](N)C[C@H]3N)[C@H](O)[C@@H](N)[C@@H]2O)nn1` , report hemolysis at 1 h, 1.95 μg/mL. 15.6
